Reported melting point values for the following compounds.

Here's what some known entries look like.
INSERT INTO assay_data (compound, readout_name, result) VALUES
  ('Cc1cn(CC2CCCN(C(=O)C3CN(C4c5ccc(Cl)cc5CCc5cccnc54)CCN3C(=O)OC(C)(C)C)C2)cn1 (single isomer, unassigned) [Example 29]', 'melting point', '109 to 124 °C'),
  ('Cc1cn(CC2CCCN(C(=O)C3CN(C4c5ccc(Cl)cc5CCc5cccnc54)CCN3C(=O)OC3CCCCC3)C2)cn1 (stereo not drawn) [Example 43]', 'melting point', '108 to 118 °C');

In the following, a different compound is considered.
Problem: Recorded melting point of Cc1cn(C[C@H]2CCCN(C(=O)[C@H]3CN([C@H]4c5ccc(Cl)cc5CCc5cc(Cl)cnc54)CCN3C(=O)OC3CCCCC3)C2)cn1 [Example 257] , please.
Result: 115 to 128 °C

====

readout_name: melting point

INSERT INTO measurements (compound, result) VALUES
  ('CC(C)(C)NC(=O)N1CCN([C@@H]2c3ccc(Cl)cc3CCc3cc(Br)cnc32)C[C@@H]1C(=O)N1CCC[C@H](Cn2ccnc2)C1 [Example 18]', '112 to 120 °C'),
  ('Cc1cn(C[C@@H]2CCCN(C(=O)[C@H]3CN([C@H]4c5ccc(Cl)cc5CCc5cc(Br)cnc54)CCN3C(=O)Cc3ccc(F)cc3)C2)cn1 [Example 197]', '105 to 110 °C'),
  ('CC(C)(C)OC(=O)N1CCN([C@H]2c3ccc(Cl)cc3CCc3cc(Br)cnc32)C[C@@H]1C(=O)N1CCC[C@@H](Cn2ccnc2)C1 [Example 13]', '127 to 130 °C'),
  ('Cc1cn(C[C@H]2CCCN(C(=O)[C@H]3CN([C@@H]4c5ccc(Cl)cc5CCc5cc(F)cnc54)CCN3C(=O)OC(C)(C)C)C2)cn1 [Example 262]', '122 to 126 °C');

Problem: Recorded melting point of Cc1cn(CC2CCCN(C(=O)C3CN(C4c5ccc(Cl)cc5CCc5cc(Br)cnc54)CCN3C(=O)OC(C)(C)C)C2)cn1 (stereo not drawn) [Example 4.1] , please.
Result: 114 to 121 °C

Problem: Recorded melting point of Cc1cn(C[C@@H]2CCCN(C(=O)[C@H]3CN([C@@H]4c5ccc(Cl)cc5CCc5cc(F)cnc54)CCN3C(=O)OC(C)(C)C)C2)cn1 [Example 260] , please.
Result: 110 to 116 °C

====

readout_name: melting point

INSERT INTO results (compound, result) VALUES
  ('Cc1cn(CC2CCCN(C(=O)C3CN(C4c5ccccc5CCc5cc(Cl)cnc54)CCN3C(=O)OC(C)(C)C)C2)cn1 (single isomer, unassigned) [Example 291]', '99 to 107 °C'),
  ('CCc1cn(CC2CCCN(C(=O)C3CN(C4c5ccc(Cl)cc5CCc5cccnc54)CCN3C(=O)OC(C)(C)C)C2)cn1 (stereo not drawn) [35(A)]', '110 to 112 °C'),
  ('Cc1cn(C[C@@H]2CCCN(C(=O)[C@H]3CN([C@H]4c5ccccc5CCc5cc(F)cnc54)CCN3C(=O)OC3CCCCC3)C2)cn1', '121 to 126 °C'),
  ('CC(C)NC(=O)N1CCN([C@@H]2c3ccc(Cl)cc3CCc3cc(Br)cnc32)C[C@@H]1C(=O)N1CCC[C@@H](Cn2ccnc2)C1', '132 to 136 °C'),
  ('Cc1cn(C[C@@H]2CCCN(C(=O)[C@H]3CN([C@@H]4c5ccc(Cl)cc5CCc5cc(Cl)cnc54)CCN3C(=O)OC(C)(C)C)C2)cn1', '115 to 128 °C');

In the following, a different compound is considered.
Problem: Recorded melting point of Cc1cn(C[C@H]2CCCN(C(=O)[C@H]3CN([C@@H]4c5ccc(Cl)cc5CCc5cc(Cl)cnc54)CCN3C(=O)OC3CCCCC3)C2)cn1 , please.
Result: 115 to 128 °C
